Assay summary: Plasma pharmacokinetics after single and multiple oral doses (noncompartmental analysis)
Type: in vivo, human
Run conditions: human, plasma, oral; single dose 110 mg; read-out: AUC∞, geometric mean (CV%)

>  <Substance smiles>
COCCNCc1ccc(-c2cc3nccc(Oc4ccc(NC(=O)C5(C(=O)Nc6ccc(F)cc6)CC5)cc4F)c3s2)nc1

>  <AUC(0-inf) (ng·h/mL)>
2920

$$$$

====

Assay summary: Plasma pharmacokinetics after single and multiple oral doses (noncompartmental analysis)
Assay type: in vivo, human
Run conditions: human, plasma, oral, 40 mg, 40 mg QD, Cycle 1 Day 15; read-out: Cmax,ss, geometric mean (CV%)
Assay readout: Cmax (ng/mL)

>  <Substance smiles>
COCCNCc1ccc(-c2cc3nccc(Oc4ccc(NC(=O)C5(C(=O)Nc6ccc(F)cc6)CC5)cc4F)c3s2)nc1

>  <Measure unit>
ng/mL

>  <Endpoint result>
32.5

$$$$
